- SYSTEM UNDER TEST: OX2 (Homo sapiens)
- Construct: expressed in transfected cells; host or cells: CHO (CHO-OX2, kept under selection antibiotic)
- Sequence (O43614 whole entry): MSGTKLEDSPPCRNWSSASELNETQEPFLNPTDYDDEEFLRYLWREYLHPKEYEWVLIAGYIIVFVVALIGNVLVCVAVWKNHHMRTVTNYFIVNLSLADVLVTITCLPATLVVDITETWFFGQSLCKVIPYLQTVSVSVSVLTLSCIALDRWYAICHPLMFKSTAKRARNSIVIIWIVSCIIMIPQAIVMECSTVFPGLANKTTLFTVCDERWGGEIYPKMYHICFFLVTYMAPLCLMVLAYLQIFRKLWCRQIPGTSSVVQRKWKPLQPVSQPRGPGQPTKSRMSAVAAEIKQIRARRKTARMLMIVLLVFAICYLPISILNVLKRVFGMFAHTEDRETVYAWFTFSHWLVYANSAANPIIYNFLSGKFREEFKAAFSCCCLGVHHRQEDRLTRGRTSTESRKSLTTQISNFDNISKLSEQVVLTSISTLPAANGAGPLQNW
- EXPERIMENTAL PROTOCOL: Orexin receptor cell-based functional assay, [Ca2+]i by FLIPR, CHO-OX2 cells
- CONDITION NOTES: [Ca2+]i by FLIPR, antagonist dose-range 0.1 nM-10 μM, EC90 of OXA, read-out: OX2

- LINE NOTATION: "Cc1cc(F)cc(C(=O)N2CCC[C@@H](C)[C@H]2CNc2ccc(C(F)(F)F)cn2)c1-n1nccn1"
  IC50: "> 4 µM"
- LINE NOTATION: "Cc1ccc(C(=O)N2CCC[C@@H](C)[C@H]2CNc2ncc(C(F)(F)F)cn2)c(-c2ncccn2)c1F"
  IC50: "> 5 µM"
- LINE NOTATION: "C[C@@H]1CCCN(C(=O)c2c(F)ccc(F)c2-c2ncccn2)[C@@H]1CNc1ncc(C(F)(F)F)cn1"
  IC50: "> 5 µM"
- LINE NOTATION: "Cc1ccc(-n2nccn2)c(C(=O)N2CCC[C@@H](C)[C@H]2COc2ccc(C(F)(F)F)cn2)c1"
  IC50: "2.3 µM"
- LINE NOTATION: "Cc1ccc(C(=O)N2CCC[C@@H](C)[C@H]2CNc2ccc(C(F)(F)F)cn2)c(-c2ncccn2)c1"
  IC50: "> 5 µM"
- LINE NOTATION: "C[C@@H]1CCCN(C(=O)c2ccc(F)cc2-c2ncccn2)[C@@H]1CNc1ccc(C(F)(F)F)cn1"
  IC50: "> 5 µM"
- LINE NOTATION: "C[C@@H]1CCCN(C(=O)c2c(F)ccc(F)c2-c2ncccn2)[C@@H]1CNc1ccc(C(F)(F)F)cn1"
  IC50: "0.5 µM"
- LINE NOTATION: "Cc1cc(F)c(-n2nccn2)c(C(=O)N2CCC[C@@H](C)[C@H]2CNc2ccc(C(F)(F)F)cn2)c1"
  IC50: "0.49 µM"
